// reported log10(CC50) per item
Tested on: HeLa
Assay: SRB colorimetric cell growth inhibition assay, HeLa
Type: cell-based
Settings: Homo sapiens, HeLa; cell killing (cytotoxic effect); read-out: LC50 HELA
assay-metric: log10(CC50) (log10 of the value in µM)

| compound | log10(CC50) |
| --- | --- |
| COc1cc2ccn3c(c(-c4ccc(OC(=O)[C@@H](NC(=O)OC(C)(C)C)C(C)C)c(OC)c4)c4c5cc(OC)c(OC(=O)[C@@H](NC(=O)OC(C)(C)C)C(C)C)cc5oc(=O)c43)c2cc1OC [Compound 15] | 0.89 |
| COc1cc2ccn3c(c(-c4ccc(OC(=O)[C@H](C)N)c(OC)c4)c4c5cc(OC)c(OC(=O)[C@H](C)N)cc5oc(=O)c43)c2cc1OC [Compound 20] | 1.18 |
| COc1cc(-c2c3c4cc(OC)c(OC(=O)[C@@H]5CCCN5)cc4oc(=O)c3n3ccc4cc(OC(=O)[C@@H]5CCCN5)c(OC)cc4c23)ccc1OC(=O)[C@@H]1CCCN1 [Compound 180] | 1.05 |
| COc1cc2c(cc1O)oc(=O)c1c2c(-c2ccc(OC)c(OC)c2)c2c3cc(OC)c(O)cc3ccn21 [Compound 233] | 1.20 |
| COc1cc2c(cc1O)CCn1c-2cc2c3cc(OC)c(O)cc3oc(=O)c21 [Compound 196] | 1.42 |
| COc1cc(-c2c3c4cc(OC)c(OC(=O)[C@@H](N)Cc5ccccc5)cc4oc(=O)c3n3ccc4cc(OC(=O)[C@@H](N)Cc5ccccc5)c(OC)cc4c23)ccc1OC(=O)[C@@H](N)Cc1ccccc1 [Compound 204] | -0.34 |

---

System: IGROV-ET
Assay: SRB colorimetric cell growth inhibition assay, IGROV-ET (ET-743 resistant)
Format: cell-based
Settings: Homo sapiens, IGROV-ET; GI=growth inhibition; read-out: GI50 IGROV-ET
assay-metric: log10 of GI50 (log10 of the value in nM)

| molecule | log10 of GI50 |
| --- | --- |
| COc1cc(-c2c3n(c4c(=O)oc5cc(OC(=O)CCc6ccccc6)c(OC)cc5c24)CCc2cc(OC(=O)CCc4ccccc4)c(OC)cc2-3)ccc1OC(=O)CCc1ccccc1 [Compound 11] | 3.74 |
| COc1cc(-c2c3n(c4c(=O)[nH]c5cc(O)c(OC)cc5c24)CCc2cc(O)c(OC)cc2-3)ccc1O [Compound 4] | 2.78 |
| COc1cc(-c2c3c4cc(OC)c(OC(=O)[C@@H](N)CO)cc4oc(=O)c3n3ccc4c(OC(=O)[C@@H](N)CO)c(OC)c(OC)cc4c23)ccc1OC(=O)[C@@H](N)CO [Compound 9] | 2.12 |
| COc1cc(-c2c3c4cc(OC)c(OC(=O)[C@H](N)C(C)C)cc4oc(=O)c3n3ccc4cc(OC(=O)[C@H](N)C(C)C)c(OC)cc4c23)ccc1OC(=O)[C@H](N)C(C)C [Compound 17] | 2.21 |
| COc1cc2c(cc1O)oc(=O)c1c2c(-c2cccc([N+](=O)[O-])c2)c2c3cc(OC)c(O)cc3ccn21 [Compound 221] | 1.81 |
| COc1cc2c(cc1OC)-c1c(-c3ccc(OC(=O)[C@H](C)N)c(OC)c3)c3c4cc(OC)c(OC(=O)[C@H](C)N)cc4oc(=O)c3n1CC2 [Compound 63] | 2.81 |
| CCCCCCCC(=O)Oc1ccc(-c2c3n(c4c(=O)oc5cc(OC(=O)CCCCCCC)c(OC)cc5c24)CCc2cc(OC(=O)CCCCCCC)c(OC)cc2-3)cc1OC [Compound 28] | 4.06 |
| COc1cc(-c2c3c4cc(OC)c(OC(=O)[C@@H](N)CC(C)C)cc4oc(=O)c3n3ccc4c(OC(=O)[C@@H](N)CC(C)C)c(OC)c(OC)cc4c23)ccc1OC(=O)[C@@H](N)CC(C)C [Compound 45] | 3.41 |
| COc1cc(-c2c3c4cc(OC)c(OC(=O)[C@@H]5CCCN5)cc4oc(=O)c3n3ccc4c(OC(=O)[C@@H]5CCCN5)c(OC)c(OC)cc4c23)ccc1OC(=O)[C@@H]1CCCN1 [Compound 30] | 2.65 |
| COc1cc(-c2c3n(c4c(=O)oc5cc(OC(=O)[C@H](C)N)c(OC)cc5c24)CCc2cc(OC(=O)[C@H](C)N)c(OC)cc2-3)ccc1OC(=O)[C@H](C)N [Compound 42] | 2.38 |
| COc1cc2c(cc1O)oc(=O)c1c2c(-c2ccc(OC)c(OC)c2)c2c3cc(OC)c(O)cc3ccn21 [Compound 233] | 2.03 |
